# target entity: Corticotropin-releasing factor receptor 2/Corticotropin-releasing factor-binding protein (Homo sapiens, UniProt P24387+Q13324)
# Sequence (Q13324 whole entry): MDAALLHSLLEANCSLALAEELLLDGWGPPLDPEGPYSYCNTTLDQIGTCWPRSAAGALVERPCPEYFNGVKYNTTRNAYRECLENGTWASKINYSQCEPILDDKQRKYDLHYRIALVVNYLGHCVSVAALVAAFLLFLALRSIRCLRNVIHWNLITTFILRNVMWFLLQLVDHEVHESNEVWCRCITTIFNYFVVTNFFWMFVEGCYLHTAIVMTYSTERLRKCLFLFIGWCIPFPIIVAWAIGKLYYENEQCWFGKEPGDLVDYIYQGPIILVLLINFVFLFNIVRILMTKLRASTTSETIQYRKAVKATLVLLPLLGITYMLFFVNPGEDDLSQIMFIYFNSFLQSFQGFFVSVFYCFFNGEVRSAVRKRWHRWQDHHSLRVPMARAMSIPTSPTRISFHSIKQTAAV
# Sequence (P24387 whole entry): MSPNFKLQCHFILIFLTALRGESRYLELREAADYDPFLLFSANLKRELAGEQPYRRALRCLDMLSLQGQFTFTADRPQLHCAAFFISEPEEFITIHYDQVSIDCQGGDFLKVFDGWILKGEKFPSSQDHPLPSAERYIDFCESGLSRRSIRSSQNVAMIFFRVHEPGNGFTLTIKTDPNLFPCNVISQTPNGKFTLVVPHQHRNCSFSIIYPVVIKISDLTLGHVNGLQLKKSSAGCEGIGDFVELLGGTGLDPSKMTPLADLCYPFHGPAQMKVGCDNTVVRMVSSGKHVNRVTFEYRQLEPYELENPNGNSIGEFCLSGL
# measurement description: Dose Response confirmation of uHTS hits for small molecule antagonists of the CRF-binding protein and CRF-R2 receptor complex.
# Assay type: functional
# run conditions: read-out: IC50_Mean
The source made the active and inactive calls.
Choose one outcome from this list and give only that: active, inactive

CCC(c1nnc(SCC(=O)Nc2c(F)cccc2F)n1Cc1ccccc1)N(C)C (configuration not stated) : inactive

Please turn your attention to the following entry.
Outcome? Cc1cn(CC(=O)N2CCN(c3ccccn3)CC2)c(=O)[nH]c1=O
inactive

* * *

# target entity: Type-1 angiotensin II receptor (Homo sapiens, UniProt P30556)
# Sequence (P30556 whole entry): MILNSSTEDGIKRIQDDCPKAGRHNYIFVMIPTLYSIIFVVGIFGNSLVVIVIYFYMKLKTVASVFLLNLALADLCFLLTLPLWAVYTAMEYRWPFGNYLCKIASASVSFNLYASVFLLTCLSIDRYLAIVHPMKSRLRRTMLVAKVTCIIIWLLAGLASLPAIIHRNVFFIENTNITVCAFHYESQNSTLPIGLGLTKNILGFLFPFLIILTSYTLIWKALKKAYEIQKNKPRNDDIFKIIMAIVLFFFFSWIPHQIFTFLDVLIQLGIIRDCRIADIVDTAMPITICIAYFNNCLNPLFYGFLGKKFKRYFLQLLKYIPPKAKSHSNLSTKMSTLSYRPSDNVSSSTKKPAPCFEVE
# measurement description: antagonism of angiotensin II type 1 receptor – cell-based, uHTS hits, selectivity assay for APJ receptor antagonist project, dose response (AID 463214);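 further: antagonist potency against angiotensin II stimulated AT1 response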
# Type: functional
The source made the active and inactive calls.
Property: IC50; scope: individual molecules

Some solved entries appear below for comparison.
CCCCN(CCCC)C(=S)N/N=C/c1c(C)nn(-c2ccccc2)c1O : 13.3 µM (active)
O=C(NNC(=O)C12CC3CC(CC(C3)C1)C2)c1ccccn1 : 11.2 µM (active)
CCSc1nnc(NC(=O)c2ccccn2)s1 : 16.8 µM (active)

Below: the item to evaluate.
Provide only the value of recorded IC50 for CC1(C)CC2(CC(c3ccccc3F)c3cc(Cl)c(O)cc3O2)NC(=S)N1 (centres undefined)
> 40 µM (not active)

* * *

# target entity: Streptokinase A (Streptococcus pyogenes serotype M1, UniProt P10520)
# Sequence (P10520 whole entry): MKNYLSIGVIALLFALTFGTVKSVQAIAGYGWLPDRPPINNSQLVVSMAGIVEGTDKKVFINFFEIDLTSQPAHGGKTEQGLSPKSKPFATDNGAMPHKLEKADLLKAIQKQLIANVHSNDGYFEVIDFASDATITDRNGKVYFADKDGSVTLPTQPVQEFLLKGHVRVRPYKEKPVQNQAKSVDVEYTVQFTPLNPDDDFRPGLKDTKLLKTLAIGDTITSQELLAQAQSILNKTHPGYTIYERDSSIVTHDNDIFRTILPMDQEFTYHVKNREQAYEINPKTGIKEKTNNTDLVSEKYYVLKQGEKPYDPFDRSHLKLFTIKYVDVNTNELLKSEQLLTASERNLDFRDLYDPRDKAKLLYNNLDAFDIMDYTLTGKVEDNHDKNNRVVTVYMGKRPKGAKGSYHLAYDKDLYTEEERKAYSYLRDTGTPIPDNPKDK
# measurement description: viability-normalized secreted streptokinase activity reduction – plasminogen activation absorbance, OD405, dose response (AID 1914);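 further: secreted streptokinase activity via plasminogen activation per viability signal from cell pellet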
# Type: functional, Streptococcus pyogenes M1 GAS
Calls of active or inactive are those of the source.
observation type: EC50

These recorded examples may help you get a feel for the data.
COC(=O)C(Nc1ccccc1Cl)(c1cc(C)c(O)c(C)c1)C(F)(F)F (stereo unspecified) : 17.2 µM (active)
CCCc1nc2ccccc2c(=O)n1NC(=O)c1c(O)c2cccc3c2n(c1=O)CCC3 : > 150 µM (not active)
Cc1cc(C)n(-c2nc(NCCCO)c3c4c(sc3n2)CCCC4)n1 : > 150 µM (not active)
CCCSc1nsc(NC(=O)C(c2ccccc2)c2ccccc2)n1 : 11.3 µM (active)
CCOc1cc(CNc2ccc3c(c2)CCC3)ccc1OC : > 150 µM (not active)

Find EC50 for CCNc1nc(NCC)nc(-n2nc(C)cc2C)n1 on Streptokinase A (Streptococcus pyogenes serotype M1, UniProt P10520) and write it down.
> 150 µM (not active)
